- targetDesc: wildtype EGFR (H358 cells) (Homo sapiens)
- Sequence (P00533 25-1210): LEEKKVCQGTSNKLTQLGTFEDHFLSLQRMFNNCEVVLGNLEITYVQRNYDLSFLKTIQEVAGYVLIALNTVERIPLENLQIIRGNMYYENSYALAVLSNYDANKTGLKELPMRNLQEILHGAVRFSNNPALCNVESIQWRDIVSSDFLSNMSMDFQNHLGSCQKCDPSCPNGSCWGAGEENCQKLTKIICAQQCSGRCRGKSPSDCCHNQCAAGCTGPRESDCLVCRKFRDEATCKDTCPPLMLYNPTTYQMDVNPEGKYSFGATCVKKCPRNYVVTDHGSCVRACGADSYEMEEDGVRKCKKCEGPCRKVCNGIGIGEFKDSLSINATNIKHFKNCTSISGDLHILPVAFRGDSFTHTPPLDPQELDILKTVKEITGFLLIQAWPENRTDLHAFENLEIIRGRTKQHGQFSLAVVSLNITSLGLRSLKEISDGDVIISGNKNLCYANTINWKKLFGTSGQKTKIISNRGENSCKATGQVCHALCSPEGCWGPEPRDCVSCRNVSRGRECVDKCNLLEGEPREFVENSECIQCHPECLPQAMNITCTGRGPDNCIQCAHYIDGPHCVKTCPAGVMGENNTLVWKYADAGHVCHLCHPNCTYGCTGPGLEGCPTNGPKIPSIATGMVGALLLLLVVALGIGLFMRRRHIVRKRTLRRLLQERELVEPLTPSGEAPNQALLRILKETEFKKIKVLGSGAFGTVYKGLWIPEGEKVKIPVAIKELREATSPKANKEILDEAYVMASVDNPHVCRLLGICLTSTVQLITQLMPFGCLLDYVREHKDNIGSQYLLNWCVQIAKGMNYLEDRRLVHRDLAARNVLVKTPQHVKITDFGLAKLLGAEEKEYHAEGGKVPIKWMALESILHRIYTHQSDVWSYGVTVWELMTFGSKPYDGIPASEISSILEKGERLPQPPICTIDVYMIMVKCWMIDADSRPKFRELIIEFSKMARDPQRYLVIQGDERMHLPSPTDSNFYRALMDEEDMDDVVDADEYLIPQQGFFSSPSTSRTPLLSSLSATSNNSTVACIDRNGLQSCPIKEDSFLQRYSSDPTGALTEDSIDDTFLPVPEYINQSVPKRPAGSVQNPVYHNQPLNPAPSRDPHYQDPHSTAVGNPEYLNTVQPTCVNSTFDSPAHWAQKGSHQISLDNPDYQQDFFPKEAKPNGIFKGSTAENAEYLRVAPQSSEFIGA
- experiment: Inhibition of EGFR autophosphorylation (p-EGFR Y1068, western blot) in H358 cells
- measurementContext: 3 h incubation, EGF stimulated
propertyLabel: IC50 (nM)
The figure you give is taken to be in nM; do not add the unit.

Any idea what its IC50 is? The compound is "CCOc1cc2ncc(C#N)c(Nc3ccc(F)c(Cl)c3)c2cc1NC(=O)/C=C/CNCc1cn(CCF)nn1"
600

----------
Could you please report measured pIC50 for the items listed next?
- targetDesc: EGFR Del E746-A750 (PC9 cells) (Homo sapiens, UniProt P00533, DEL746-750)
- Construct: endogenous in cells
- Sequence (P00533 with tags, fused parts or gaps DEL746-750): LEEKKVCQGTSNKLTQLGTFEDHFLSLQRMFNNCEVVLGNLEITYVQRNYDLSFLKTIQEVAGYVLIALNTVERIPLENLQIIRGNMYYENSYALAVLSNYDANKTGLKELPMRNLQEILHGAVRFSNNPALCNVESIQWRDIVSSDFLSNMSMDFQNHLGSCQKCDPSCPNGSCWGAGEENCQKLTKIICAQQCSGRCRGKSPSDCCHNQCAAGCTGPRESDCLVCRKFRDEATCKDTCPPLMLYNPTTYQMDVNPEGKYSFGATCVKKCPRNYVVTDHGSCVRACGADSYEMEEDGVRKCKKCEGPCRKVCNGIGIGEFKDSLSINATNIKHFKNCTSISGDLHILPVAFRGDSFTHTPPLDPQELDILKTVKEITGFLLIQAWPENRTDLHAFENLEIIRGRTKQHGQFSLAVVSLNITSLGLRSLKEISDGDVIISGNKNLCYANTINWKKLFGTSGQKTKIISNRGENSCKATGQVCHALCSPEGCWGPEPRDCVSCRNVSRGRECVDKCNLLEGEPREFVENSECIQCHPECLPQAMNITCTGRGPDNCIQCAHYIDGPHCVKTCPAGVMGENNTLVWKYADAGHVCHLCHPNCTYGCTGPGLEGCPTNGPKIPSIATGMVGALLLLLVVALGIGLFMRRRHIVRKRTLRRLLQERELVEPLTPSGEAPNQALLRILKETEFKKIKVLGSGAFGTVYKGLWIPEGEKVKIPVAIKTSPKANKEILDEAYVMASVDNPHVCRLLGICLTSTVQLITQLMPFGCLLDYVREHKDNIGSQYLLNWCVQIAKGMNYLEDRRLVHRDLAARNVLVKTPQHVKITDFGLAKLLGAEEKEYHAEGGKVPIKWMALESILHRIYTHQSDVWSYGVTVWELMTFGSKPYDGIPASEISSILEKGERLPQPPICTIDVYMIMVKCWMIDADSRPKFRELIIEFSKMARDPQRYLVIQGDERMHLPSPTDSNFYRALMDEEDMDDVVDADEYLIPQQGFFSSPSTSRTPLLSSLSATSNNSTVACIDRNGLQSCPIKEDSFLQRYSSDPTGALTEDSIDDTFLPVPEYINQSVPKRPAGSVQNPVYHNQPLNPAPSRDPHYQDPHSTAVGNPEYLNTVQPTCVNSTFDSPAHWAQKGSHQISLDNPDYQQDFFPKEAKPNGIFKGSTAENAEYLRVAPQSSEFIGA
- experiment: Inhibition of EGFR autophosphorylation (p-EGFR Y1068, western blot) in PC9 cells
- measurementContext: 3 h incubation, densitometry of western blots
- Method: Affinity of the cyanoquinolines for EGFR was established by measuring their inhibition of EGFR autophosphorylation via western blot. Cells were seeded in 6 well plates and following 24 h of growth, were subject to overnight serum starvation. […] Lysates were analysed by western blot to measure changes to p-EGFR Y1068. […]
As a rule, pIC50 stands for the negative log10 of the concentration, concentration in M.

Please look up its pIC50: CCOc1cc2ncc(C#N)c(Nc3ccc(F)c(Cl)c3)c2cc1NC(=O)/C=C/CNCc1cn([C@@H]2OC(CO)[C@@H](O)C(O)C2F)nn1 (some centres unmarked) [FED20]
6.52

I would be grateful if you could share the reported pIC50 for CCOc1cc2ncc(C#N)c(Nc3ccc(F)c(Cl)c3)c2cc1NC(=O)/C=C/CNCc1cn(CCF)nn1 [FED6] .
7.66

----------
- experiment: Caco2 transwell assay
- Type: in vitro ADME, human
- measurementContext: human, Caco-2, with verapamil 10 mg/mL, pre-treatment for 1 h, pre-treatment with 10 mg/mL verapamil for 1 h; read-out: efflux ratio in the presence of verapamil
propertyLabel: efflux ratio at 120 min, 10 μM
// return a plain number; no unit text

Look at this compound and give its reported efflux ratio at 120 min, 10 μM. "CCOc1cc2ncc(C#N)c(Nc3ccc(F)c(Cl)c3)c2cc1NC(=O)/C=C/CNCc1cn(CCF)nn1"
1.1
